Protocol description: Solubility of the compound in PBS measured after overnight incubation by LYSA assay
Type: physicochemical
solubility below 20 µg/mL gives Criterion not met; solubility at or above it gives Criterion met.

// known answers, use as guide
O=C(NO)c1ccc(NC2CCN(c3cccc(Cl)c3)C2=O)cc1 (centres undefined) ... Criterion not met
O=C(NO)c1ccc(NC2CCN(c3ccc(Cl)cc3)C2=O)cc1F (centres undefined) ... Criterion not met
O=C(NO)c1ccc(NC2CCN(c3ccc(Cl)cc3)C2)cc1 (centres undefined) ... Criterion not met

Req: Textbook exercise: given the entry `C[C@@]1(Nc2ccc(C(=O)NO)cc2)CCN(c2ccc(Cl)cc2)C1=O` , state whether its solubility is greater than or equal to 20 µg/mL.
Resp: Criterion met

Req: Textbook exercise: given the entry CS(=O)(=O)c1ccc(N2CCC(Nc3ccc(C(=O)NO)cc3)C2=O)cc1 (centres undefined) , state whether its solubility is greater than or equal to 20 µg/mL.
Resp: Criterion met

Req: Textbook exercise: given the entry O=C(NO)c1ccc(NC2CCN(c3ccc(C(F)(F)F)cc3)C2=O)cc1 (centres undefined) , state whether its solubility is greater than or equal to 20 µg/mL.
Resp: Criterion met
